Measured Activity accompanies every entry in the list below.
tested on: Alopecurus myosuroides; test: Herbicidal activity against Alopecurus myosuroides after 3 weeks by post-emergence greenhouse test; assay type: functional; set-up: concentration or dose not given beside the values

Compound | Activity [%]
COc1cc(OC)nc(NC(=O)NS(=O)(=O)c2c(Sc3ccccc3)nc3ccccn23)n1 | 0
COc1cc(OC)nc(NC(=O)NS(=O)(=O)c2c([S+]([O-])C(C)C)nc3ccccn23)n1 (configuration not stated) | 1
CCS(=O)(=O)c1nc2ccccn2c1S(=O)(=O)NC(=O)Nc1nc(OC)cc(OC)n1 | 88
COc1cc(OC)nc(NC(=O)NS(=O)(=O)c2c([S+](C)[O-])nc3ccccn23)n1 (configuration not stated) | 0
CCSc1nc2ccccn2c1S(=O)(=O)NC(=O)Nc1nc(OC)cc(OC)n1 | 51
CCCS(=O)(=O)c1nc2ccccn2c1S(=O)(=O)NC(=O)Nc1nc(OC)cc(OC)n1 | 76
CC[S+]([O-])c1nc2ccccn2c1S(=O)(=O)NC(=O)Nc1nc(OC)cc(OC)n1 (configuration not stated) | 1
CCC[S+]([O-])c1nc2ccccn2c1S(=O)(=O)NC(=O)Nc1nc(OC)cc(OC)n1 (configuration not stated) | 1
COc1cc(OC)nc(NC(=O)NS(=O)(=O)c2c(S(=O)(=O)c3ccccc3)nc3ccccn23)n1 | 0
COc1cc(OC)nc(NC(=O)NS(=O)(=O)c2c(S(C)(=O)=O)nc3ccccn23)n1 | 76
COc1cc(OC)nc(NC(=O)NS(=O)(=O)c2c([S+]([O-])c3ccccc3)nc3ccccn23)n1 (configuration not stated) | 1
CCS(=O)(=O)c1nc2ccccn2c1S(=O)(=O)NC(=O)Nc1nc(C)cc(C)n1 | 51
COc1cc(OC)nc(NC(=O)NS(=O)(=O)c2c(SC)nc3ccccn23)n1 | 1
CCS(=O)(=O)c1nc2ccccn2c1S(=O)(=O)NC(=O)Nc1nc(Cl)cc(OC)n1 | 51
COc1cc(OC)nc(NC(=O)NS(=O)(=O)c2c(SC(C)C)nc3ccccn23)n1 | 1
COc1cc(OC)nc(NC(=O)NS(=O)(=O)c2c(S(=O)(=O)C(C)C)nc3ccccn23)n1 | 88
CCCSc1nc2ccccn2c1S(=O)(=O)NC(=O)Nc1nc(OC)cc(OC)n1 | 1
